# study.target: Tyrosine-protein phosphatase non-receptor type 1 (Homo sapiens)
# Sequence (whole entry): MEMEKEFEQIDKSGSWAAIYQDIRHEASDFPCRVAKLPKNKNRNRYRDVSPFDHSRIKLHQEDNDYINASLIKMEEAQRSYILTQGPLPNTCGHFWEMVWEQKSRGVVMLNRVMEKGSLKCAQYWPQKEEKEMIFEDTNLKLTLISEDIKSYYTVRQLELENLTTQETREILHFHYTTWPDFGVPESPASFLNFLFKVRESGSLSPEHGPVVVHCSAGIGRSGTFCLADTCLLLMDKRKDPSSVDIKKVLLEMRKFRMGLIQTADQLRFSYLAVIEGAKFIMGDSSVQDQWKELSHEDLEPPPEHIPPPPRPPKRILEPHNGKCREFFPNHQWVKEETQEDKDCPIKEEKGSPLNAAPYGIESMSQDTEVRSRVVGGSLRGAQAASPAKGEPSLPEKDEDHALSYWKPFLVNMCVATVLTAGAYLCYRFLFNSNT
# assay.procedure: Inhibition of PTP1B in human HepG2 cells assessed as improvement in insulin-induced 2-NBDG uptake at 5 uM incubated for 24 hrs prior to compound washout followed by insulin stimulation for 20 mins and subsequent 2-NBDG addition measured after 60 mins by FACS analysis relative to control
# Assay type: cell-based
Parameter: inhibition. Scope: all listed entries.
Expressed in %, but write only the number.

Example entries and their recorded answers appear below.
compound	study.target	measured.value
CCOS(=O)(=O)/C=C/c1ccc(OCC2=CC[C@@H]3C(C(=O)Nc4ccc(Oc5ccc(-c6ccccc6)cc5)cc4)=CO[C@@H](OC)[C@H]23)cc1	Tyrosine-protein phosphatase non-receptor type 1 (Homo sapiens)	38.6
CCOS(=O)(=O)/C=C/c1ccc(CNC(=O)C2=CO[C@@H](O[C@@H]3O[C@H](COCc4ccccc4)[C@@H](OCc4ccccc4)[C@H](OCc4ccccc4)[C@H]3OCc3ccccc3)[C@@H]3C(COCc4ccccc4)=CC[C@H]23)cc1	Tyrosine-protein phosphatase non-receptor type 1 (Homo sapiens)	43.4
CCOS(=O)(=O)/C=C/c1ccc(OCC2=CC[C@@H]3C(C(=O)Nc4ccc(Oc5ccc(Br)cc5Cl)cc4)=CO[C@@H](OCc4ccccc4)[C@H]23)cc1	Tyrosine-protein phosphatase non-receptor type 1 (Homo sapiens)	43.8

Input: Look at this compound and give its reported inhibition. CCc1ccc(CCOc2ccc(CC3SC(=O)NC3=O)cc2)nc1 (centres undefined)
Output: 33.8

Recorded values, source ChEMBL document CHEMBL4765409.
